test system: MDA-N; test: NCI tumour cell line growth inhibition, 48 h
Reported TGI values follow for various compounds
observedProperty: TGI

{"columns": ["compound", "targetUnderTest", "observedProperty", "reportedResult"],
 "data": [
  ["O=C1C(N=Nc2ccc(-c3nc4ccccc4o3)cc2)NC(=S)N1c1ccccc1 (stereo unspecified)", "MDA-N", "TGI", "> 100 µM"],
  ["CCCCCCCC(=O)N/N=C/c1ccc(Sc2nccn2C)c([N+](=O)[O-])c1", "MDA-N", "TGI", "32 µM"],
  ["NCCCc1ccc2oc3ccccc3c2c1", "MDA-N", "TGI", "29.6 µM"],
  ["COc1ccc(NCC(=O)Nn2c(C)nc3ccc(S(=O)(=O)Nc4ccc(OC)cc4)cc3c2=O)cc1", "MDA-N", "TGI", "> 100 µM"],
  ["COC1OC(COC(=O)NCCCCC(=O)C(F)(F)F)C(O)C(O)C1O (stereo unspecified)", "MDA-N", "TGI", "> 100 µM"],
  ["O=[N+]([O-])c1ccc(N=NN2CCCC2)cc1", "MDA-N", "TGI", "> 100 µM"]
]}

###

system: A498 renal; test: NCI tumour cell line growth inhibition, 48 h

{"columns": ["compound", "TGI"],
 "data": [
  ["Fc1ccc(Nc2nccc(-c3c(-c4ccc(C(F)(F)F)cc4)nn4ncccc34)n2)cc1F", "> 25 µM"],
  ["C=CC12CN(C)C3C4COC(CC41)C1(C(=O)Nc4ccccc41)C32 (stereo unspecified)", "> 200 µM"],
  ["CN(C)C(=O)C1CCC(=C2C(=O)OC(C)(C)OC2=O)N1C (stereo unspecified)", "> 100 µM"],
  ["N/N=C(\\Cc1ccccc1)NN=C(N)N", "> 100 µM"],
  ["CCOC(=O)COc1ccc(/C=C/C(=O)c2ccc(OC)cc2)cc1", "> 100 µM"],
  ["Cc1c2cnccc2nc2[nH]c3ccncc3c12", "47.5 µM"]
]}

###

tested on: K-562 leukemia; assay: NCI tumour cell line growth inhibition, 48 h

{"columns": ["molecule", "targetUnderTest", "GI50"],
 "data": [
  ["COc1ccc(/C=C2\\CCCC3=C2NC(C)=NC3c2ccc(OC)c(OC)c2)cc1OC (stereo unspecified)", "K-562 leukemia", "4.54 µM"],
  ["COc1ccc(-c2ccc(/C=N/n3c(COc4ccc(Cl)cc4)n[nH]c3=S)o2)c([N+](=O)[O-])c1", "K-562 leukemia", "11.6 µM"],
  ["O=c1[nH]cnc2c(C3OC(CO)C(O)C3O)scc12 (stereo unspecified)", "K-562 leukemia", "31.5 µM"],
  ["CCc1c2c(nc3cccc(N)c13)-c1cc3c(c(=O)n1C2)COC(=O)[C@]3(O)CC", "K-562 leukemia", "0.00244 µM"],
  ["C=C(C)CCC(C)N1CCC(N2CCC(C(=O)NCCc3ccccc3)CC2)CC1 (stereo unspecified)", "K-562 leukemia", "9.9 µM"],
  ["C/C1=C\\CC[C@@](C)(O)[C@@H]2CC3[C@@H](OC(=O)C34CC4)[C@@H](O2)[C@H](C)CCC1 (stereo partly specified)", "K-562 leukemia", "35.1 µM"],
  ["CCOC(=O)N1CCN(S(=O)(=O)c2oc(-c3ccc(Cl)cc3)nc2C#N)CC1", "K-562 leukemia", "1.59 µM"],
  ["CCCCC[C@H]1C/C=C2/C(=O)C(Cl)=C[C@@H]2C/C=C\\CCCC(=O)O[C@@H](CCCCC)C/C=C2/C(=O)C(Cl)=C[C@@H]2C/C=C\\CCCC(=O)O1", "K-562 leukemia", "0.314 µM"],
  ["Fc1ccc(Nc2nc(NCCNc3ccnc4cc(Cl)ccc34)nc(N3CCOCC3)n2)cc1", "K-562 leukemia", "2.91 µM"],
  ["CCN1C(=O)N(CC)C2C1NN=c1s/c(=C3\\C(=O)N(C)c4ccccc43)c(=O)n12 (stereo unspecified)", "K-562 leukemia", "0.352 µM"],
  ["Nc1nc(OCc2ccccc2)nc2[nH]ncc12", "K-562 leukemia", "19.7 µM"]
]}

###

test system: UACC-62 melanoma; assay: NCI tumour cell line growth inhibition, 48 h
Reported TGI values follow for various compounds
observedProperty: TGI

{"columns": ["compound", "reportedResult"],
 "data": [
  ["C=C(Br)CN(CC(=C)Br)C(C)=O", "> 100 µM"],
  ["O=c1cccccc1NCCCCCCCCCNc1cccccc1=O", "28.7 µM"],
  ["CN(C)C(=O)C1CCC(=C2C(=O)OC(C)(C)OC2=O)N1C (stereo unspecified)", "> 100 µM"],
  ["O=C1CCC[C@H]2O[C@@H](COCc3ccccc3)C[C@@H]12", "> 100 µM"],
  ["C=C(N=[N+]=[N-])c1cn(C2CC(O)C(CO)O2)c(=O)[nH]c1=O (stereo unspecified)", "> 100 µM"],
  ["CCOC(=O)N1C2C=C(C)C(C3C(C)C(=O)N31)N(C(=O)c1ccccc1)O2 (stereo unspecified)", "> 100 µM"],
  ["CCOC(=O)N1CCN(S(=O)(=O)c2oc(-c3ccc(Cl)cc3)nc2C#N)CC1", "12.7 µM"],
  ["COC(=O)C(=O)C(C(=O)C=C(C)C)C(=O)C(=O)Nc1cccc(C(C)=O)c1 (stereo unspecified)", "> 100 µM"],
  ["COc1ccc(/C=C2\\CCCC3=C2NC(C)=NC3c2ccc(OC)c(OC)c2)cc1OC (stereo unspecified)", "> 100 µM"],
  ["O=C(CC(C(=O)c1ccsc1)c1ccccc1)c1cccs1 (stereo unspecified)", "> 100 µM"],
  ["CC(C)N1CSC(=S)N(Cc2ccccc2)C1", "> 10 µM"]
]}

###

tested on: U251 CNS
Classes used: true (1) = active, false (0) = inactive

{"columns": ["molecule", "targetUnderTest", "cat"],
 "data": [
  ["COc1ccc(-c2ccc(/C=N/n3c(COc4ccc(Cl)cc4)n[nH]c3=S)o2)c([N+](=O)[O-])c1", "U251 CNS", "false (0)"],
  ["Cc1cc(N2CCCC2)nc(N(CCCNc2ccnc3cc(Cl)ccc23)Cc2ccc3c(c2)OCO3)n1", "U251 CNS", "false (0)"],
  ["CC(=O)OC1C2(CC3N4C(=O)C5(CO)SSC4(CC31O)C(=O)N5C)OC(C)C(C)(C)C2=O (stereo not drawn)", "U251 CNS", "true (1)"],
  ["Fc1ccc(Nc2nccc(-c3c(-c4ccc(C(F)(F)F)cc4)nn4ncccc34)n2)cc1F", "U251 CNS", "false (0)"],
  ["COc1ccc2c(c1)C(=O)c1c-2n(CCCN2CCOCC2)c(=O)c2ccccc12", "U251 CNS", "false (0)"],
  ["S=c1ssc(Sc2ccccn2)c1Cl", "U251 CNS", "false (0)"],
  ["O=c1[nH]cnc2c(C3OC(CO)C(O)C3O)scc12 (stereo not drawn)", "U251 CNS", "false (0)"],
  ["CCc1c[nH]c2ncnc(N3CC[C@@](N)(CNC(=O)c4ccc(F)cc4F)C3)c12", "U251 CNS", "false (0)"]
]}

###

Reported GI50 values follow for various molecules
tested on: RXF 393 renal; test: NCI tumour cell line growth inhibition, 48 h
observedProperty: GI50

{"columns": ["recordSmiles", "reportedResult"],
 "data": [
  ["COC(=O)[C@@H]1CCCN1C(=O)[C@@H]1CCCN1C(=O)[C@@H](Cc1c[nH]c2ccccc12)NC(=S)Nc1cc(C(F)(F)F)cc(C(F)(F)F)c1", "2.14 µM"],
  ["CCOC(=O)N1CCN(S(=O)(=O)c2oc(-c3ccc(Cl)cc3)nc2C#N)CC1", "1.82 µM"],
  ["CS(=O)(=O)Nc1cc(-c2ccc3ncnc(Nc4ccc5c(cnn5Cc5ccc(F)cc5)c4)c3c2)cnc1Cl", "0.38 µM"],
  ["COc1ccc2c(c1)C(=O)c1c-2n(CCCN2CCOCC2)c(=O)c2ccccc12", "3.22 µM"],
  ["Clc1ccc2nc(Oc3ccccc3)cnc2c1", "> 100 µM"]
]}

###

Reported TGI values follow for various molecules
system: UACC-62 melanoma; test: NCI tumour cell line growth inhibition, 48 h
observedProperty: TGI (µM)

{"columns": ["molecule", "targetUnderTest", "inequalitySymbol", "reportedResult"],
 "data": [
  ["N#CC1C(N)=NNC12Nc1ccccc1N2 (stereo not given)", "UACC-62 melanoma", "=", 33.8],
  ["O=C(NCCNCCO)N/N=C/c1ccc([N+](=O)[O-])cc1", "UACC-62 melanoma", ">", 100],
  ["COc1cc(/C=C(/c2ccccc2)[N+](=O)[O-])c(OC)c2c1OCO2", "UACC-62 melanoma", "=", 2.98],
  ["COc1cc2cc(Oc3ccc(NC(=O)c4ccc(Cl)c(C(F)(F)F)c4)cc3)c(C)nc2cc1OC", "UACC-62 melanoma", ">", 100],
  ["CCCCC[C@H]1C/C=C2/C(=O)C(Cl)=C[C@@H]2C/C=C\\CCCC(=O)O[C@@H](CCCCC)C/C=C2/C(=O)C(Cl)=C[C@@H]2C/C=C\\CCCC(=O)O1", "UACC-62 melanoma", "=", 0.62],
  ["CN=C(N)N/N=C(\\C)c1ccc2oc3ccc(/C(C)=N/NC(N)=NC)cc3c2c1", "UACC-62 melanoma", ">", 23.8],
  ["CC1OC(c2ccccc2)=CC(OCc2ccccc2)[C@H]1OCc1ccccc1 (stereo not given in full)", "UACC-62 melanoma", ">", 10],
  ["c1ccc2c(c1)CCN2CCc1c[nH]c2ccccc12", "UACC-62 melanoma", ">", 10],
  ["CCOC(=O)COc1ccc(/C=C/C(=O)c2ccc(OC)cc2)cc1", "UACC-62 melanoma", "=", 58.6],
  ["Cc1cn2c(/C=N/N/C(N)=N\\N)c(-c3ccc(Cl)c([N+](=O)[O-])c3)nc2s1", "UACC-62 melanoma", "=", 1.67]
]}
